Experiment: Peptide retention time in capillary IP-RP-HPLC with ESI-MS detection
Type: physicochemical
Conditions: vds1 (verified peptides, tryptic digest of protein mixture 1), 50 × 0.2 mm monolithic poly-(styrene/divinylbenzene) column, gradient 0–40% acetonitrile in 0.05% (v/v) aqueous trifluoroacetic acid in 60 min, 55°C, 2 μl/min, retention times scaled linearly so that TCVADESHAGCEK = 0.1 and MPCTEDYLSLILNR = 0.9
attribute measured: normalized retention time (NRT)

>  <substance>
WCTISSPEEK [verified tryptic peptide, vds1]

>  <result>
0.3623

$$$$
>  <substance>
FFSASCVPGATIEQK [verified tryptic peptide, vds1]

>  <result>
0.5977

$$$$
>  <substance>
CCTESLVNR [verified tryptic peptide, vds1]

>  <result>
0.2011

$$$$
>  <substance>
NAPYSGYSGAFHCLK [verified tryptic peptide, vds1]

>  <result>
0.5571

$$$$
>  <substance>
CLDGSR [verified tryptic peptide, vds1]

>  <result>
0.1101

$$$$
>  <substance>
CCTKPESER [verified tryptic peptide, vds1]

>  <result>
0.05163

$$$$

====

Experiment: Peptide retention time in capillary IP-RP-HPLC with ESI-MS detection
Assay type: physicochemical
Settings: vds1 (verified peptides, tryptic digest of protein mixture 1), 50 × 0.2 mm monolithic poly-(styrene/divinylbenzene) column, gradient 0–40% acetonitrile in 0.05% (v/v) aqueous trifluoroacetic acid in 60 min, 55°C, 2 μl/min, in s (unit assumed)
Listed below: observed retention time values for each entry.
attribute measured: observed retention time

>  <substance>
IQWCAVGK [verified tryptic peptide, vds1]

>  <numeric readout>
727

$$$$
>  <substance>
NLQMDDFELLCTDGR [verified tryptic peptide, vds1]

>  <numeric readout>
1581

$$$$
>  <substance>
MPCTEDYLSLILNR [late eluting standard peptide identified in all runs; verified tryptic peptide, vds1]

>  <numeric readout>
1821

$$$$
>  <substance>
DKCEPLEK [verified tryptic peptide, vds1]

>  <numeric readout>
129

$$$$
>  <substance>
GTFAALSELHCDK [verified tryptic peptide, vds1]

>  <numeric readout>
1028

$$$$
>  <substance>
DDPHACYSTVFDK [verified tryptic peptide, vds1]

>  <numeric readout>
809

$$$$
>  <substance>
NLQMDDFELLCTDGRR [verified tryptic peptide, vds1]

>  <numeric readout>
1522

$$$$
>  <substance>
LKPDPNTLCDEFK [verified tryptic peptide, vds1]

>  <numeric readout>
1112

$$$$
>  <substance>
WSVVSNGDVECTVVDETK [verified tryptic peptide, vds1]

>  <numeric readout>
1250

$$$$
>  <substance>
WCTISSPEEK [verified tryptic peptide, vds1]

>  <numeric readout>
697

$$$$
>  <substance>
LRCASIQK [verified tryptic peptide, vds1]

>  <numeric readout>
221

$$$$
>  <substance>
DVCKNYQEAK [verified tryptic peptide, vds1]

>  <numeric readout>
119

$$$$
>  <substance>
CCTKPESER [verified tryptic peptide, vds1]

>  <numeric readout>
47

$$$$
>  <substance>
DEYELLCLDGSR [verified tryptic peptide, vds1]

>  <numeric readout>
1144

$$$$
>  <substance>
ECNLAEVPTHAVVVRPEK [verified tryptic peptide, vds1]

>  <numeric readout>
1126

$$$$
>  <substance>
RPCFSALTPDETYVPK [verified tryptic peptide, vds1]

>  <numeric readout>
1337

$$$$
>  <substance>
YICDNQDTISSK [verified tryptic peptide, vds1]

>  <numeric readout>
404

$$$$
>  <substance>
TCNPSDILQMCSFLEGK [verified tryptic peptide, vds1]

>  <numeric readout>
1877

$$$$
>  <substance>
TCVADESHAGCEK [early eluting standard peptide identified in all runs; verified tryptic peptide, vds1]

>  <numeric readout>
148

$$$$
>  <substance>
ECCHGDLLECADDR [verified tryptic peptide, vds1]

>  <numeric readout>
700

$$$$
>  <substance>
LCQLCQGSGGIPPEK [verified tryptic peptide, vds1]

>  <numeric readout>
855

$$$$
>  <substance>
ETYGDMADCCEK [verified tryptic peptide, vds1]

>  <numeric readout>
490

$$$$
>  <substance>
CLDGSR [verified tryptic peptide, vds1]

>  <numeric readout>
169

$$$$
>  <substance>
SLHTLFGDELCK [verified tryptic peptide, vds1]

>  <numeric readout>
1196

$$$$
>  <substance>
EQLGEFYEALDCLRIPK [verified tryptic peptide, vds1]

>  <numeric readout>
1949

$$$$
>  <substance>
GACLLPK [verified tryptic peptide, vds1]

>  <numeric readout>
453

$$$$
>  <substance>
GYTLPPHCSR [verified tryptic peptide, vds1]

>  <numeric readout>
543

$$$$
>  <substance>
SHCIAEVEK [verified tryptic peptide, vds1]

>  <numeric readout>
238

$$$$
>  <substance>
NECFLSHKDDSPDLPK [verified tryptic peptide, vds1]

>  <numeric readout>
944

$$$$
>  <substance>
FFSASCVPGATIEQK [verified tryptic peptide, vds1]

>  <numeric readout>
1189

$$$$
>  <substance>
KSCHTAVGR [verified tryptic peptide, vds1]

>  <numeric readout>
59

$$$$
>  <substance>
ECCDKPLLEK [verified tryptic peptide, vds1]

>  <numeric readout>
459

$$$$
>  <substance>
TGTCNFDEYFSEGCAPGSPPNSR [verified tryptic peptide, vds1]

>  <numeric readout>
1370

$$$$
>  <substance>
DDPHACYSTVFDKLK [verified tryptic peptide, vds1]

>  <numeric readout>
1174

$$$$
>  <substance>
VGGHAAEYGAEALER [verified tryptic peptide, vds1]

>  <numeric readout>
643

$$$$
>  <substance>
GTFAALSELHCDKLHVDPENFK [verified tryptic peptide, vds1]

>  <numeric readout>
1645

$$$$
>  <substance>
LFTFHADICTLPDTEK [verified tryptic peptide, vds1]

>  <numeric readout>
1608

$$$$
>  <substance>
EQLGEFYEALDCLR [verified tryptic peptide, vds1]

>  <numeric readout>
1723

$$$$
>  <substance>
CCTESLVNR [verified tryptic peptide, vds1]

>  <numeric readout>
360

$$$$
>  <substance>
EYEATLEECCAK [verified tryptic peptide, vds1]

>  <numeric readout>
628

$$$$
>  <substance>
YNGVFQECCQAEDK [verified tryptic peptide, vds1]

>  <numeric readout>
775

$$$$
>  <substance>
NAPYSGYSGAFHCLK [verified tryptic peptide, vds1]

>  <numeric readout>
1104

$$$$
>  <substance>
TSCHTGLGR [verified tryptic peptide, vds1]

>  <numeric readout>
76

$$$$

====

Test: Peptide retention time in capillary IP-RP-HPLC with ESI-MS detection
Type: physicochemical
Settings: vds1 (verified peptides, tryptic digest of protein mixture 1), 50 × 0.2 mm monolithic poly-(styrene/divinylbenzene) column, gradient 0–40% acetonitrile in 0.05% (v/v) aqueous trifluoroacetic acid in 60 min, 55°C, 2 μl/min, retention times scaled linearly so that TCVADESHAGCEK = 0.1 and MPCTEDYLSLILNR = 0.9

>  <polymer sequence>
GYTLPPHCSR [verified tryptic peptide, vds1]

>  <normalized retention time (NRT)>
0.2886

$$$$
>  <polymer sequence>
IQWCAVGK [verified tryptic peptide, vds1]

>  <normalized retention time (NRT)>
0.3767

$$$$
>  <polymer sequence>
VGGHAAEYGAEALER [verified tryptic peptide, vds1]

>  <normalized retention time (NRT)>
0.3365

$$$$
>  <polymer sequence>
RPCFSALTPDETYVPK [verified tryptic peptide, vds1]

>  <normalized retention time (NRT)>
0.6687

$$$$
>  <polymer sequence>
NLQMDDFELLCTDGRR [verified tryptic peptide, vds1]

>  <normalized retention time (NRT)>
0.7573

$$$$
>  <polymer sequence>
DKCEPLEK [verified tryptic peptide, vds1]

>  <normalized retention time (NRT)>
0.09093

$$$$
>  <polymer sequence>
ECCDKPLLEK [verified tryptic peptide, vds1]

>  <normalized retention time (NRT)>
0.2486

$$$$
>  <polymer sequence>
TCNPSDILQMCSFLEGK [verified tryptic peptide, vds1]

>  <normalized retention time (NRT)>
0.9271

$$$$
>  <polymer sequence>
LFTFHADICTLPDTEK [verified tryptic peptide, vds1]

>  <normalized retention time (NRT)>
0.7983

$$$$
>  <polymer sequence>
DVCKNYQEAK [verified tryptic peptide, vds1]

>  <normalized retention time (NRT)>
0.08607

$$$$

====

Assay: Peptide retention time in capillary IP-RP-HPLC with ESI-MS detection
Type: physicochemical
Settings: vds1 (verified peptides, tryptic digest of protein mixture 1), 50 × 0.2 mm monolithic poly-(styrene/divinylbenzene) column, gradient 0–40% acetonitrile in 0.05% (v/v) aqueous trifluoroacetic acid in 60 min, 55°C, 2 μl/min, retention times scaled linearly so that TCVADESHAGCEK = 0.1 and MPCTEDYLSLILNR = 0.9

>  <substance>
KSCHTAVGR [verified tryptic peptide, vds1]

>  <normalized retention time (NRT)>
0.05729

$$$$
>  <substance>
ETYGDMADCCEK [verified tryptic peptide, vds1]

>  <normalized retention time (NRT)>
0.2635

$$$$
>  <substance>
EQLGEFYEALDCLR [verified tryptic peptide, vds1]

>  <normalized retention time (NRT)>
0.8534

$$$$
>  <substance>
NECFLSHKDDSPDLPK [verified tryptic peptide, vds1]

>  <normalized retention time (NRT)>
0.4804

$$$$
>  <substance>
ECCHGDLLECADDR [verified tryptic peptide, vds1]

>  <normalized retention time (NRT)>
0.364

$$$$
>  <substance>
GTFAALSELHCDKLHVDPENFK [verified tryptic peptide, vds1]

>  <normalized retention time (NRT)>
0.8158

$$$$
>  <substance>
SHCIAEVEK [verified tryptic peptide, vds1]

>  <normalized retention time (NRT)>
0.1429

$$$$
>  <substance>
LRCASIQK [verified tryptic peptide, vds1]

>  <normalized retention time (NRT)>
0.1348

$$$$
>  <substance>
LCQLCQGSGGIPPEK [verified tryptic peptide, vds1]

>  <normalized retention time (NRT)>
0.4382

$$$$
>  <substance>
NLQMDDFELLCTDGR [verified tryptic peptide, vds1]

>  <normalized retention time (NRT)>
0.7853

$$$$
>  <substance>
EQLGEFYEALDCLRIPK [verified tryptic peptide, vds1]

>  <normalized retention time (NRT)>
0.9614

$$$$
>  <substance>
TSCHTGLGR [verified tryptic peptide, vds1]

>  <normalized retention time (NRT)>
0.06527

$$$$
>  <substance>
LKPDPNTLCDEFK [verified tryptic peptide, vds1]

>  <normalized retention time (NRT)>
0.5611

$$$$
>  <substance>
EYEATLEECCAK [verified tryptic peptide, vds1]

>  <normalized retention time (NRT)>
0.3297

$$$$
>  <substance>
DDPHACYSTVFDKLK [verified tryptic peptide, vds1]

>  <normalized retention time (NRT)>
0.5908

$$$$
>  <substance>
YNGVFQECCQAEDK [verified tryptic peptide, vds1]

>  <normalized retention time (NRT)>
0.3998

$$$$
>  <substance>
DDPHACYSTVFDK [verified tryptic peptide, vds1]

>  <normalized retention time (NRT)>
0.4159

$$$$
>  <substance>
DEYELLCLDGSR [verified tryptic peptide, vds1]

>  <normalized retention time (NRT)>
0.5761

$$$$
>  <substance>
YICDNQDTISSK [verified tryptic peptide, vds1]

>  <normalized retention time (NRT)>
0.2223

$$$$
>  <substance>
WSVVSNGDVECTVVDETK [verified tryptic peptide, vds1]

>  <normalized retention time (NRT)>
0.6268

$$$$
>  <substance>
GACLLPK [verified tryptic peptide, vds1]

>  <normalized retention time (NRT)>
0.2458

$$$$
>  <substance>
ECNLAEVPTHAVVVRPEK [verified tryptic peptide, vds1]

>  <normalized retention time (NRT)>
0.5677

$$$$
>  <substance>
SLHTLFGDELCK [verified tryptic peptide, vds1]

>  <normalized retention time (NRT)>
0.6014

$$$$
>  <substance>
GTFAALSELHCDK [verified tryptic peptide, vds1]

>  <normalized retention time (NRT)>
0.5207

$$$$
>  <substance>
TGTCNFDEYFSEGCAPGSPPNSR [verified tryptic peptide, vds1]

>  <normalized retention time (NRT)>
0.6845

$$$$
